This collection of values is drawn from paper PMC7531004.

- Tested on: Streptococcus pyogenes SSI-9
- Procedure Details: Antibacterial activity assay of bead-derived peptides (three concentrations)
- Type: cell-based
- Set-up: key: +++: inhibition by the 640-fold diluted peptide solution; ++: inhibition by the 160-fold diluted solution; +: inhibition by the 40-fold diluted solution; -: no inhibition
- Particulars: S. pyogenes, bead-derived peptide solution, three concentrations
Where a SMILES comes first, the peptide text is derived from it. [ ]: non-standard residue; d: D form. The star is where a group is joined. NHCH2CH2OH = OCCN*; For = O=C*

{"Compound": "CNC(=O)C[C@@H](NC(=O)[C@@H](NC(=O)[C@@H](CC(C)C)NC(=O)[C@H](C)NC(=O)[C@H](NC(=O)[C@H](C)NC(=O)CNC(=O)[C@@H](NC=O)C(C)C)C(C)C)C(C)C)C(=O)N[C@@H](Cc1c[nH]c2ccccc12)C(=O)N[C@H](CC(C)C)C(=O)N[C@@H](Cc1c[nH]c2ccccc12)C(=O)N[C@H](CC(C)C)C(=O)N[C@@H](Cc1c[nH]c2ccccc12)C(=O)N[C@H](CC(C)C)C(=O)N[C@@H](Cc1c[nH]c2ccccc12)C(=O)NCCO [compound 1242] (For-VGA[dV]A[dL]V[dD](NHMe)W[dL]W[dL]W[dL]W-NHCH2CH2OH)", "Subject Of Test": "Streptococcus pyogenes SSI-9", "antibacterial activity": "-"}
{"Compound": "CC(C)C[C@@H](NC(=O)[C@H](C)NC(=O)CNC(=O)[C@@H](NC=O)C(C)C)C(=O)N[C@@H](C)C(=O)N[C@@H](C(=O)N[C@H](C(=O)N[C@H](CC(C)C)C(=O)N[C@@H](Cc1c[nH]c2ccccc12)C(=O)N[C@H](CC(C)C)C(=O)N[C@@H](Cc1c[nH]c2ccccc12)C(=O)N[C@@H](C(=O)N[C@@H](Cc1c[nH]c2ccccc12)C(=O)N[C@H](CC(C)C)C(=O)N[C@@H](Cc1c[nH]c2ccccc12)C(=O)NCCO)[C@H](C)O)C(C)C)C(C)C [compound 11425] (For-VGA[dL]A[dV]V[dL]W[dL]W[dT]W[dL]W-NHCH2CH2OH)", "Subject Of Test": "Streptococcus pyogenes SSI-9", "antibacterial activity": "+"}
